Record form. Attribute: growth inhibition. Fill in for each entry.
- test-protocol: NCI Yeast Anticancer Drug Screen. Data for the rad52 strain (AID 147);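 further: 0% = growth of vehicle-treated control cultures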
- condition-context: S. cerevisiae rad52 mutant growth inhibition; at 100.0 µM; active compounds read high
About 79,000 compounds went through this panel and 15% of them were active in at least one assay; those are over-represented in the sample as a whole.
One number for each entry, in %.

Oc1ccc(C=Nc2ccccc2O)cc1 = 88
O=C(CCc1ccccc1)ON1C(=S)C(c2ccccc2)(c2ccccc2)N=C1Sc1ccccc1 = 36
O=S1(=O)c2ccccc2N=C(c2ccccc2Cl)CC1c1ccc(F)cc1 (stereo unspecified) = 34
C(=N/NC1=NCCN1)/c1c2ccccc2c(/C=N\NC2=NCCN2)c2ccccc12 = 96
CCc1nc(N)nc(N)c1-c1ccc(NCCCCCCN)c([N+](=O)[O-])c1 = 32

Quick request: growth inhibition for each listed item, please.
1. N#C/C(=C\c1ccccc1)c1ccccc1F
2. N#C/C(=C/N1C(=O)/C(=C/c2ccc([N+](=O)[O-])cc2)SC1=S)c1nc2ccccc2s1
3. COC(=O)c1ccc2c(c1)Cc1ccccc1-2

1. 3
2. 77
3. 28

Batch request: growth inhibition for each of the following compounds.
1. O=S(=O)(c1cc(Cl)ccc1O)c1cc(Cl)ccc1O
2. CC1OC(OC2CCCc3c(O)c4c(c(O)c32)C(=O)c2ccccc2C4=O)CC(N)C1O (stereo unspecified)
3. c1ccc2c(c1)Cn1c-2nc2ccccc21

99
99
97
